B1: Pistol ribozyme (parent)
chain: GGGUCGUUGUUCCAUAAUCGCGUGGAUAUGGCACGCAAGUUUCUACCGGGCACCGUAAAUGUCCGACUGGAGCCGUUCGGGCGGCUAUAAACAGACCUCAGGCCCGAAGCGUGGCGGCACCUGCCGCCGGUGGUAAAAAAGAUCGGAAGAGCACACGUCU

# Variants of: B1
# protocolDescription: aptazyme ON/OFF ratio, guanine; higher = stronger switching; co-transcriptional cleavage with and without guanine
For each entry below, report its aptazyme ON/OFF ratio value.
Give bare numbers.

U7G U8A G9C U10A U11G C12A: 1.02
U8C U11A C12A C13U: 1.28
U8C G9A U10G U11C C13U: 1.06

Return reported aptazyme ON/OFF ratio values for all items listed beneath this line.
1. U7A U8A G9C U10C U11A C13G
2. U7G G9A U10G U11G C13A
3. U8C G9A U10C U11G C12A C13U
4. U7G U8G U10A U11G C13A

Result:
[1.19, 1.05, 1.4, 1.18]
